Each recorded value in this set is attributed to the METLIN SMRT retention time set (Domingo-Almenara et al. 2019).

# EXPERIMENT NOTES: gradient 5% acetonitrile 3 min, to 50% in 2 min, to 85% in 15 min, held 3 min, 100 µL/min
# CONDITION: column: Zorbax Extend-C18 2.1 x 50 mm; eluents: water / acetonitrile, 0.1% formic acid
So basically: is RP-LC retention time under 700 s? Then fulfilled. Not under? Then not fulfilled.

Request: A record lists `Cn1c(=O)n(CC(=O)NC2CCCCC2)c(=O)c2cnc(-c3ccc(Cl)cc3)nc21` . Is its RP-LC retention time below 700 s?
Result: not fulfilled

Request: A record lists Cc1nc2nc(-c3ccc(C(C)(C)C)cc3)nn2c(C)c1CC(=O)N1CCCCC1C (stereo not drawn) . Is its RP-LC retention time below 700 s?
Result: not fulfilled

Request: A record lists `CC(C)CN(Cc1cccnc1)C1CN(S(=O)(=O)c2cccnc2)C1` . Is its RP-LC retention time below 700 s?
Result: fulfilled

Request: A record lists `O=C(NCc1ccc(F)cc1)c1ccc(-c2cccs2)nc1` . Is its RP-LC retention time below 700 s?
Result: not fulfilled

Request: A record lists `COc1ccc(N2CCN(Cc3cc(=O)c(OC)cn3CC(=O)NC(C)C)CC2)cc1` . Is its RP-LC retention time below 700 s?
Result: fulfilled

Request: A record lists `Cn1c(N2CCN(C(=O)Cc3ccc(Cl)cc3)CC2)cc(=O)n(C)c1=O` . Is its RP-LC retention time below 700 s?
Result: fulfilled

Request: A record lists `CCCCCCNC(=O)C1CCN(C(=O)C(C)(C)C)CC1` . Is its RP-LC retention time below 700 s?
Result: not fulfilled
